protocol notes: Rat pharmacokinetic study, single oral HM04 fumarate salt 3, 10, 30 mg/kg (Example 10)
Type: in vivo, male Sprague Dawley rats
protocol conditions: male, Sprague Dawley, plasma, 10 mg/kg oral, 24 hours, N = 1, three of four animals below level of quantification
readout type: concentration at 24 h (ng/mL)
Report only the number, with the unit ng/mL understood.

Task: So what's the measured concentration at 24 h for this one? CN1CCC(N(C)C(=O)N[C@H](c2ccc(-c3cnccn3)c(Cl)c2Cl)C(F)(F)F)CC1.O=C(O)/C=C/C(=O)O [HM04 fumarate salt]
Output: 8.73

====

protocol notes: Rat pharmacokinetic study, HM04 free base vs HM04 fumarate salt (Example 9)
Format: in vivo, male Sprague Dawley rats
protocol conditions: male, Sprague Dawley, plasma, 3 mg/kg oral, mean ± S.D., n=3
Overview of reported AUC(0-t) across a group of compounds:
Report the value in ng·h/mL with no unit label.

Task: For CN1CCC(N(C)C(=O)N[C@H](c2ccc(-c3cnccn3)c(Cl)c2Cl)C(F)(F)F)CC1.O=C(O)/C=C/C(=O)O [HM04 fumarate salt] , what is its reported AUC(0-t)?
Output: 970

Task: Recorded AUC(0-t) for CN1CCC(N(C)C(=O)N[C@H](c2ccc(-c3cnccn3)c(Cl)c2Cl)C(F)(F)F)CC1 [HM04 free base] , please?
Output: 220

====

protocol notes: Dog pharmacokinetic study, single oral HM04 fumarate salt 3, 10, 30 mg/kg (Example 10)
Assay type: in vivo, male Beagle dogs
protocol conditions: male, Beagle, plasma, 10 mg/kg oral, 24 hours, n=4
readout type: concentration at 24 h (ng/mL)
Numeric only. Scale: ng/mL

Task: Which concentration at 24 h is reported for this molecule? CN1CCC(N(C)C(=O)N[C@H](c2ccc(-c3cnccn3)c(Cl)c2Cl)C(F)(F)F)CC1.O=C(O)/C=C/C(=O)O [HM04 fumarate salt]
Output: 65.1

====

protocol notes: Dog pharmacokinetic study, single oral HM04 fumarate salt 3, 10, 30 mg/kg (Example 10)
Format: in vivo, male Beagle dogs
protocol conditions: male, Beagle, plasma, po, 10 mg/kg, Dog 1, 10 mg/kg oral, read-out: individual oral AUC∞
readout type: AUC(0-inf) (ng·h/mL)
Provide the reading as a plain figure in ng·h/mL.

Task: # AUC(0-inf) lookup, item CN1CCC(N(C)C(=O)N[C@H](c2ccc(-c3cnccn3)c(Cl)c2Cl)C(F)(F)F)CC1.O=C(O)/C=C/C(=O)O [HM04 fumarate salt]
Output: 17500

====

protocol notes: Rat pharmacokinetic study, HM04 free base vs HM04 fumarate salt (Example 9)
Assay type: in vivo, male Sprague Dawley rats
protocol conditions: male, Sprague Dawley, plasma, 3 mg/kg oral vs 3 mg/kg intravenous mean AUC
readout type: bioavailability (%)
Quick note: give the figure in %, leave out the unit.

| molecule | display unit | experimental result |
| --- | --- | --- |
| CN1CCC(N(C)C(=O)N[C@H](c2ccc(-c3cnccn3)c(Cl)c2Cl)C(F)(F)F)CC1.O=C(O)/C=C/C(=O)O [HM04 fumarate salt] | % | 46.1 |

Task: Reported bioavailability for CN1CCC(N(C)C(=O)N[C@H](c2ccc(-c3cnccn3)c(Cl)c2Cl)C(F)(F)F)CC1 [HM04 free base] : what is it?
Output: 22.2

====

protocol notes: Dog pharmacokinetic study, single oral HM04 fumarate salt 3, 10, 30 mg/kg (Example 10)
Assay type: in vivo, male Beagle dogs
protocol conditions: male, Beagle, plasma, po, 10 mg/kg, Dog 2, 10 mg/kg oral, read-out: individual oral AUC∞
readout type: AUC(0-inf) (ng·h/mL)
Express your answer in ng·h/mL, writing the number without its unit.

Task: Report AUC(0-inf) for CN1CCC(N(C)C(=O)N[C@H](c2ccc(-c3cnccn3)c(Cl)c2Cl)C(F)(F)F)CC1.O=C(O)/C=C/C(=O)O [HM04 fumarate salt] please.
Output: 8780

====

protocol notes: Dog pharmacokinetic study, HM04 free base vs HM04 fumarate salt (Example 9)
Format: in vivo, male Beagle dogs
protocol conditions: male, Beagle, plasma, po, 2 mg/kg, 2 mg/kg oral, 8 hours, mean ± S.D., n=3
readout type: concentration at 8 h

Task: Can you share its concentration at 8 h? I mean this compound: CN1CCC(N(C)C(=O)N[C@H](c2ccc(-c3cnccn3)c(Cl)c2Cl)C(F)(F)F)CC1 [HM04 free base]
Output: 49.2 ng/mL

====

Listed here: items and their measured AUC.
protocol notes: Dog pharmacokinetic study, HM04 free base vs HM04 fumarate salt (Example 9)
Format: in vivo, male Beagle dogs
protocol conditions: male, Beagle, plasma, 1 mg/kg intravenous, three dogs, read-out: mean AUC following intravenous administration
Express your answer in ng·h/mL, writing the number without its unit.

Task: Item CN1CCC(N(C)C(=O)N[C@H](c2ccc(-c3cnccn3)c(Cl)c2Cl)C(F)(F)F)CC1 [HM04 free base] has what recorded AUC?
Output: 782

Task: Quick check: AUC of CN1CCC(N(C)C(=O)N[C@H](c2ccc(-c3cnccn3)c(Cl)c2Cl)C(F)(F)F)CC1.O=C(O)/C=C/C(=O)O [HM04 fumarate salt] ?
Output: 1130

====

protocol notes: Rat pharmacokinetic study, single oral HM04 fumarate salt 3, 10, 30 mg/kg (Example 10)
Type: in vivo
protocol conditions: male, Sprague Dawley, plasma, 3 mg/kg intravenous, four rats, read-out: mean AUC following intravenous administration
readout type: AUC (ng·h/mL)
Express it in ng·h/mL; write the number only.

Task: Item CN1CCC(N(C)C(=O)N[C@H](c2ccc(-c3cnccn3)c(Cl)c2Cl)C(F)(F)F)CC1.O=C(O)/C=C/C(=O)O [HM04 fumarate salt] has what recorded AUC?
Output: 1760

====

protocol notes: Dog pharmacokinetic study, HM04 free base vs HM04 fumarate salt (Example 9)
Format: in vivo, male Beagle dogs
protocol conditions: male, Beagle, plasma, 2 mg/kg oral, mean ± S.D., n=3
The reader will find reported Tmax values listed item by item below.
Kindly answer with a numeric value in h, unit omitted.

| molecule | display unit | experimental result |
| --- | --- | --- |
| CN1CCC(N(C)C(=O)N[C@H](c2ccc(-c3cnccn3)c(Cl)c2Cl)C(F)(F)F)CC1.O=C(O)/C=C/C(=O)O [HM04 fumarate salt] | h | 1.33 |

Task: # query: Tmax of entry CN1CCC(N(C)C(=O)N[C@H](c2ccc(-c3cnccn3)c(Cl)c2Cl)C(F)(F)F)CC1 [HM04 free base]
Output: 2

====

protocol notes: Dog pharmacokinetic study, single oral HM04 fumarate salt 3, 10, 30 mg/kg (Example 10)
Assay type: in vivo, male Beagle dogs
protocol conditions: male, Beagle, plasma, iv, 3 mg/kg, Dog 2, 3 mg/kg intravenous, read-out: individual IV AUC∞
readout type: AUC(0-inf)
The answer should read as a number with its unit following.

Task: Field request: AUC(0-inf) | item: CN1CCC(N(C)C(=O)N[C@H](c2ccc(-c3cnccn3)c(Cl)c2Cl)C(F)(F)F)CC1.O=C(O)/C=C/C(=O)O [HM04 fumarate salt]
Output: 3100 ng·h/mL

====

protocol notes: Dog pharmacokinetic study, single oral HM04 fumarate salt 3, 10, 30 mg/kg (Example 10)
Type: in vivo, male Beagle dogs
protocol conditions: male, Beagle, plasma, 30 mg/kg oral, n=4
Experimental: The pharmacokinetics of HM04 in plasma after single oral administration of HM04 fumarate salt to 6-week old male Sprague Dawley rats and male Beagle dogs (1-5 years of age) was investigated. Test formulations of 0.6 mg/mL, 2 mg/mL, and 6 mg/mL HM04 fumarate salt (based on weight of the free base) were prepared in 5% glucose solution. […] Plasma HM04 concentrations were measured by LC-MS/MS following protein precipitation in the 96-well plate format. […]
readout type: Tmax (h)
// return numeric value only (unit: h, not printed)

Task: What value of Tmax has been recorded for this entry: CN1CCC(N(C)C(=O)N[C@H](c2ccc(-c3cnccn3)c(Cl)c2Cl)C(F)(F)F)CC1.O=C(O)/C=C/C(=O)O [HM04 fumarate salt]
Output: 1

====

protocol notes: Dog pharmacokinetic study, single oral HM04 fumarate salt 3, 10, 30 mg/kg (Example 10)
Type: in vivo, male Beagle dogs
protocol conditions: male, Beagle, plasma, 10 mg/kg oral, 4 hours, n=4
Protocol: The pharmacokinetics of HM04 in plasma after single oral administration of HM04 fumarate salt to 6-week old male Sprague Dawley rats and male Beagle dogs (1-5 years of age) was investigated. Test formulations of 0.6 mg/mL, 2 mg/mL, and 6 mg/mL HM04 fumarate salt (based on weight of the free base) were prepared in 5% glucose solution. […] Plasma HM04 concentrations were measured by LC-MS/MS following protein precipitation in the 96-well plate format. […]
readout type: concentration at 4 h

Task: What value of concentration at 4 h has been reported for the following compound? CN1CCC(N(C)C(=O)N[C@H](c2ccc(-c3cnccn3)c(Cl)c2Cl)C(F)(F)F)CC1.O=C(O)/C=C/C(=O)O [HM04 fumarate salt]
Output: 789 ng/mL
